- TARGET ENTITY: human mGluR2 receptor (Homo sapiens)
- Construct: expressed in transfected cells; host or cells: CHO cells (membranes)
- Sequence (Q14416 19-872): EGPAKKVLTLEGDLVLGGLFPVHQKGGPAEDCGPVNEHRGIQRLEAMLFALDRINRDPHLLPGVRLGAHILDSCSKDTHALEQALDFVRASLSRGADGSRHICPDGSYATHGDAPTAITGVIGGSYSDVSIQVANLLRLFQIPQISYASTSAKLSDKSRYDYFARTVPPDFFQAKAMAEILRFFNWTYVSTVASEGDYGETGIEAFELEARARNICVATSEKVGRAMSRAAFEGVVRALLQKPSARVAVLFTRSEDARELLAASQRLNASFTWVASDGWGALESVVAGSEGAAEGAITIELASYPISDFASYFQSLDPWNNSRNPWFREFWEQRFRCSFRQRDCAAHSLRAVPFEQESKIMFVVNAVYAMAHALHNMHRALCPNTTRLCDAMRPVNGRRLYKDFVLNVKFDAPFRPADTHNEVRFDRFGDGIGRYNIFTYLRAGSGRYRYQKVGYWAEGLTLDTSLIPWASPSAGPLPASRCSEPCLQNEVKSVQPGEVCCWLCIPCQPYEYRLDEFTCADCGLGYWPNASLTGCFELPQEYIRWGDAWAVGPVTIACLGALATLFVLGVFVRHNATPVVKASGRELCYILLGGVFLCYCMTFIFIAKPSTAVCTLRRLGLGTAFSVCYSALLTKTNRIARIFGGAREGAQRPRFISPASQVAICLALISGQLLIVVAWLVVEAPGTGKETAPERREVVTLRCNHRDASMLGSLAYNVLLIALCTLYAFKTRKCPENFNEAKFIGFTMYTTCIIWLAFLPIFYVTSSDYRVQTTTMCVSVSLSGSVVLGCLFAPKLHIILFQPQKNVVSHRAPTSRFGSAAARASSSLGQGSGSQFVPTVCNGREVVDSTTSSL
- PROTOCOL: [35S]GTPγS binding assay, mGluR2 positive allosteric modulation (PAM)
- Format: biochemical
- ASSAY CONDITIONS: in presence of ~EC20 glutamate, membranes of CHO cells with human mGluR2; read-out: GTPγS-hmGluR2 PAM pEC50 (converted)
Each record is given fulfilled if its reported EC50 is strictly below 9 nM. Records at or above 9 nM are given not fulfilled.

Consider the following illustrative entries.
COc1cccc(F)c1C1CCN(c2ccn3c(CC(F)(F)F)nnc3c2Cl)CC1 :: fulfilled
COc1ccc(F)cc1C1CCN(c2ccn3c(CC4CC4)nnc3c2Cl)CC1 :: not fulfilled
COc1c(C2CCN(c3ccn4c(CC5CC5)nnc4c3Cl)CC2)ccc(F)c1F :: not fulfilled
COc1c(F)ccc(F)c1C1CCN(c2ccn3c(CC4CC4)nnc3c2Cl)CC1 :: fulfilled

State whether 9 nM exceeds EC50 recorded for COc1c(F)cccc1C1CCN(c2ccn3c(CC4CC4)nnc3c2C(F)(F)F)CC1 . not fulfilled

* * *

- PROTOCOL: Biodistribution studies of 11C tracers
- Assay type: in vivo, Wistar rats
- ASSAY CONDITIONS: 30 min p.i., normalized for body weight
RECORDED ENDPOINT: SUV Cerebrum total
Number only, please.

Known SUV Cerebrum total results, listed for orientation:
[11CH3]Oc1c(F)ccc(F)c1C1CCN(c2ccn3c(CC4CC4)nnc3c2C(F)(F)F)CC1 [[^11C]B-3] :: 1.11
[11CH3]Oc1cc(F)cc(F)c1C1CCN(c2ccn3c(CC4CC4)nnc3c2Cl)CC1 [[^11C]B-7] :: 1.51
[11CH3]Oc1cccc(F)c1C1CCN(c2ccn3c(CC4CC4)nnc3c2Cl)CC1 [[^11C]B-6] :: 1.66
[11CH3]Oc1ccc(F)cc1C1CCN(c2ccn3c(CC4CC4)nnc3c2Cl)CC1 [[^11C]B-4] :: 1.66
[11CH3]Oc1ccc(F)c(F)c1C1CCN(c2ccn3c(CC4CC4)nnc3c2Cl)CC1 [[^11C]B-10] :: 1.34

Next up:
Sample [11CH3]Oc1c(F)ccc(F)c1C1CCN(c2ccn3c(CC4CC4)nnc3c2Cl)CC1 [[^11C]B-2] ; SUV Cerebrum total observed: 1.96

* * *

- PROTOCOL: Biodistribution studies of 11C tracers
- Type: in vivo, Wistar rats
- ASSAY CONDITIONS: 30 min p.i.
The following molecules are listed with their measured % ID Blood values.
Provide the reading as a plain figure in % ID.

Briefly, % ID Blood measured for [11CH3]Oc1cccc(F)c1C1CCN(c2ccn3c(CC4CC4)nnc3c2Cl)CC1 [[^11C]B-6] : 2.9

In plain terms, [11CH3]Oc1ccc(F)c(F)c1C1CCN(c2ccn3c(CC4CC4)nnc3c2Cl)CC1 [[^11C]B-10] has a documented % ID Blood of 3.9

The recorded % ID Blood for [11CH3]Oc1cc(F)cc(F)c1C1CCN(c2ccn3c(CC4CC4)nnc3c2Cl)CC1 [[^11C]B-7] is 3.5

The measured % ID Blood associated with [11CH3]Oc1ccc(F)cc1C1CCN(c2ccn3c(CC4CC4)nnc3c2Cl)CC1 [[^11C]B-4] reads 2.8

get_value(item= [11CH3]Oc1c(F)ccc(F)c1C1CCN(c2ccn3c(CC4CC4)nnc3c2Cl)CC1 [[^11C]B-2] , readout=% ID Blood) returns 2.7

The measured % ID Blood associated with [11CH3]Oc1c(F)ccc(F)c1C1CCN(c2ccn3c(CC4CC4)nnc3c2C(F)(F)F)CC1 [[^11C]B-3] reads 2.6
